// provenance: PubChem BioAssay (NCI)

- Tested on: SNB-19 CNS
- EXPERIMENT NOTES: NCI-60 one-dose screen, 48 h (100 = growth as untreated, 0 = no growth, -100 = all killed)
- MEASUREMENT SETUP: 10 µM
- Description: Growth inhibition of the SNB-19 human tumor cell line is measured as a screen for anti-cancer activity. Cells are grown in 96 well plates and exposed to the test compound for 48 hours. Compounds are tested at a single concentration, which is 10^-5 M for most compounds. The reported endpoint is percent growth (GI% or GIPRCNT), where numbers from 0 - 100% represent growth inhibition, and numbers from -100% - 0 represent cell death. For example, a value of 40 represents 60% growth inhibition. […]
Compounds without any hit were thinned out: in the full panel of roughly 83,000, 20% have a hit.
OBSERVATION TYPE: growth (%)

1) CC(C)N(CCOc1cccc(-c2nc3sccn3c2-c2ccnc(S(C)(=O)=O)n2)c1)C(C)C: 101
2) C[C@]12CC[C@@H]3c4ccc(OS(=O)(=O)O)cc4CC[C@H]3[C@@H]1CC[C@@H]2NS(=O)(=O)c1ccc(-c2ccccc2)cc1: 89.6
3) CCCCC(CC)CN=C(N)NC(N)=NCCCCCCN=C(N)NC(N)=NCC(CC)CCCC (stereo not given): -87.2
4) COc1ccccc1/C=N\N/C(N)=N\N=C\c1ccccc1OC: 35.3
5) O=C(CI)OCC(COC(=O)CI)OC(=O)CI: 101
6) c1ccc(/C(=N\Nc2ccc3ccccc3n2)c2ccccn2)cc1: 26.1
7) COc1ccc2nc(-c3ccc(Cl)cc3)cc(-c3nnc(SC/C(=N\O)c4ccccc4)n3-c3ccccc3)c2c1: 104
8) Cc1ccc(C2=NN(c3ccc(S(C)(=O)=O)cc3)C(=O)CC2)cc1: 55
9) Cc1nn(-c2ccccc2)c2nc(Cl)c(C=O)c(-c3ccccc3)c12: 95.6
10) CCCN1CN2C(=O)N3CN(CCC)CN4C(=S)N(C1)C2C34 (stereo not given): 101
